# Tested on: prolyl-endopeptidase
# testProtocol: in vitro
# cond: prolyl-endopeptidase (Seikagaku Corporation), pH 7.2
assayEndpoint: remaining at 1 h, 25 μg/ml (%)
Just the number in %, nothing appended.

Reported remaining at 1 h, 25 μg/ml of H-SMGLPCIFM-OH [Compound f, H-Ser-Met-Gly-Leu-Pro-Cys-Ile-Phe-Met-OH] : 12

----------
# Test system: prolyl-endopeptidase
# testProtocol: in vitro
# cond: prolyl-endopeptidase (Seikagaku Corporation), pH 7.2
Where a SMILES comes first, the peptide text is derived from it. Bridges are numbered along the chain shown (N, C = ends).
assayEndpoint: remaining at 7 h, 25 μg/ml

Reported remaining at 7 h, 25 μg/ml of CSCC[C@H](NC(=O)[C@@H](NC(=O)[C@@H](NC(=O)[C@H](CS)NC(=O)[C@@H]1CCCN1C(=O)[C@H](CC(C)C)NC(=O)CNC(=O)[C@H](CCSC)NC(=O)[C@H](CO)NC(=O)[C@H](Cc1c[nH]c2ccccc12)NC(=O)[C@@H]1CC(=O)NCC(=O)N[C@@H](CC(N)=O)C(=O)N[C@@H](Cc2c[nH]c3ccccc23)C(=O)N[C@@H](Cc2c[nH]cn2)C(=O)NCC(=O)N[C@@H]([C@@H](C)O)C(=O)N[C@@H](C)C(=O)N2CCC[C@H]2C(=O)N1)C(C)C)C(C)C)C(=O)O [Compound 3] (GNWHGTAPDWSMGLPCVVM-OH; lactam N-9) : ~60%
